- assayed.target: Mu-type opioid receptor (Rattus norvegicus, UniProt P33535)
- Sequence (P33535 whole entry): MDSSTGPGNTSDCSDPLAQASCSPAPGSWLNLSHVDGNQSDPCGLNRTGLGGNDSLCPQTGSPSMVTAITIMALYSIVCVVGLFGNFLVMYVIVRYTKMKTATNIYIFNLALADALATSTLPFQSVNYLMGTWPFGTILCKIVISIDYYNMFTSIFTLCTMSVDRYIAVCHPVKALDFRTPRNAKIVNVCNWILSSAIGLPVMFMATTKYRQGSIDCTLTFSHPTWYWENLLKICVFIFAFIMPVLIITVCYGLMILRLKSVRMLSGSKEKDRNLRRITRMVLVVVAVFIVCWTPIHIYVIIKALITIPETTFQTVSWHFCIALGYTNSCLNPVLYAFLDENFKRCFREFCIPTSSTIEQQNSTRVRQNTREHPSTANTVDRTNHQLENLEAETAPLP
- test.protocol: Displacement of [3H]-DAMGO from mu opioid receptor in Wistar rat brain membranes after 45 mins by liquid scintillation counting analysis
readout.kind: pIC50
For clarity, pIC50 is expressed as the negative log10 of concentration in mol/L.

Field request: pIC50 | item: CC(C)C[C@@H]1NC(=O)[C@H](Cc2ccccc2)NC(=O)CNC(=O)[C@H](NC(=O)[C@@H](N)Cc2ccc(O)cc2)CCCNC(=S)NCCC[C@@H](C(N)=O)NC1=O 7.91

Field request: pIC50 | item: CC(C)C[C@@H]1NC(=O)[C@H](Cc2ccccc2)NC(=O)CNC(=O)[C@H](NC(=O)[C@@H](N)Cc2ccc(O)cc2)CCCN/C(N(C)C)=N\CCC[C@@H](C(N)=O)NC1=O 7.71

Field request: pIC50 | item: CS/C1=N/CCC[C@@H](C(N)=O)NC(=O)[C@H](CC(C)C)NC(=O)[C@H](Cc2ccccc2)NC(=O)CNC(=O)[C@H](NC(=O)[C@@H](N)Cc2ccc(O)cc2)CCCN1 7.54
